B1: Tudor domain-containing protein 3, residues 554 to 611; numbered along this chain, Q9H7E2 (parent)
chain: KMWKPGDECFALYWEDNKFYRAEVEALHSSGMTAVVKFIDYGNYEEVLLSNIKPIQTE

Variants of: B1
Experiment: abundance fitness (aPCA) (normalised: wild type 0, dead -1); higher = more abundant; growth selection in yeast, the domain comes from the species named
Conditions: Homo sapiens
Mark TRUE for reported abundance fitness of -0.5 or greater; mark FALSE for anything smaller.

K4V : TRUE
K37I : FALSE
L12I : TRUE
D7F : FALSE
K37M : FALSE
D16I : FALSE
A22T : FALSE
T33P : FALSE
E58S : TRUE
C9H : FALSE

Could you verify whether the entry H28R shows abundance fitness of no less than -0.5?
TRUE

Could you verify whether the entry V35F shows abundance fitness of no less than -0.5?
TRUE

Could you verify whether the entry I39D shows abundance fitness of no less than -0.5?
TRUE

Could you verify whether the entry V47P shows abundance fitness of no less than -0.5?
FALSE

Could you verify whether the entry A22S shows abundance fitness of no less than -0.5?
FALSE

Could you verify whether the entry P5R shows abundance fitness of no less than -0.5?
TRUE
